# reported sDSSmod; entries follow
- Test system: SK-GT2 cells
- Method Notes: FDA library drug sensitivity testing (CellTiter-Glo, 72 h)
- Type: cell-based, human
- Experimental Setup: SK-GT2; sDSSmod = DSSmod (patient cells) - DSSmod (normal cells)
Counter-ions that a name gives are not always drawn.
Observation Type: sDSSmod

Compound	Study System	Meas Value
Cc1nc(Nc2ncc(C(=O)Nc3c(C)cccc3Cl)s2)cc(N2CCN(CCO)CC2)n1	SK-GT2 cells	-12.8072
Cc1[nH]c2ccccc2c1CCNCc1ccc(/C=C/C(=O)NO)cc1	SK-GT2 cells	-40.4215
Cc1ccc(C(=O)Nc2ccc(CN3CCN(C)CC3)c(C(F)(F)F)c2)cc1C#Cc1cnc2cccnn12	SK-GT2 cells	-11.7711
Nc1nc(Cl)nc2c1ncn2[C@@H]1O[C@H](CO)[C@@H](O)[C@@H]1F	SK-GT2 cells	-9.559
CC[C@@]1(O)C(=O)OCc2c1cc1n(c2=O)Cc2cc3c(CN(C)C)c(O)ccc3nc2-1 [Topotecan HCl]	SK-GT2 cells	-13.0332
CC(C)n1c(/C=C/C(O)CC(O)CC(=O)O)c(-c2ccc(F)cc2)c2ccccc21 (stereo not shown) [Fluvastatin sodium]	SK-GT2 cells	-17.1525
CC(C)C[C@H](NC(=O)[C@H](CCc1ccccc1)NC(=O)CN1CCOCC1)C(=O)N[C@@H](Cc1ccccc1)C(=O)N[C@@H](CC(C)C)C(=O)[C@@]1(C)CO1	SK-GT2 cells	-44.432

Provenance of the data: paper PMC6136712
